Biological target: EGFR on the surface of human tumour cells (A431, H292) (human, UniProt P00533 25-1210)
Experiment: cell-based or functional assay
Examples of binders with documented % inhibition of EGFR phosphorylation at 100 nM binder, cell-based assay follow.
Reported Metric: % inhibition of EGFR phosphorylation at 100 nM binder, cell-based assay (%)

Binder: E92 (designed binder) 10Fn3 domain: MGVSDVPRDLEVVAATPTSLLISWQAANHSYQYYRITYGETGGNSPVQEFTVPGGVRTATISGLKPGVDYTITVYAVTDFFNPVTHEYKYRTIPISINYRTEIDKPSQ
Value Measured: 88.5
//
Binder: E95 (designed binder) 10Fn3 domain: MGVSDVPRDLEVVAATPTSLLISWVVPQGMYQYYRITYGETGGNSPVQEFTVPGGVSTATISGLKPGVDYTITVYAVTDYFNPATHEYNYHSIPISINYRTEIDKPSQ
Value Measured: 98
//
Binder: E88 (designed binder) 10Fn3 domain: MGVSDVPRDLEVVAATPTSLLISWSATNKTYQYYRITYGETGGNSPVQEFTVPGGVRTATISGLKPGVDYTITVYAVTDYFNPTTHEYIYQTTPISINYRTEIDKPSQ
Value Measured: 89.3

The reported numbers originate from patent US20180037631A1.
